Can you tell me pEC50 for the items I'm about to list?
molecular target: human Oxytocin (OTR) receptor (Homo sapiens); assay: Calcium flux assay (FLIPR) in CHO cells expressing human OTR; details: agonist mode, CHO cells, calcium flux FLIPR; read-out: hOT EC50
Sequence (P30559 whole entry): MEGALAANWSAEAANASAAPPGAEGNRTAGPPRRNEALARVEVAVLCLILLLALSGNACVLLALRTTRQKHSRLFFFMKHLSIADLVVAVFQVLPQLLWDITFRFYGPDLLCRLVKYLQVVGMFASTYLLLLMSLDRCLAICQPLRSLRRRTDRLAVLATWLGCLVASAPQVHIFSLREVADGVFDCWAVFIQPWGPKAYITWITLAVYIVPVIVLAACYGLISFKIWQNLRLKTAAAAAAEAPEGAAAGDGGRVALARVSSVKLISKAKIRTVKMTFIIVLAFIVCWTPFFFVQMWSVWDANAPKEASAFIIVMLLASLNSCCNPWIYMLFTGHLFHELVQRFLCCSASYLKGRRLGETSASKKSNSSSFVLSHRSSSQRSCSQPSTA
Where a SMILES comes first, the peptide text is derived from it.
Give only the number. pEC50 is defined as minus log10 of concentration in molar units.

Ask: Quick one: pEC50 for CC[C@H](C)[C@@H]1NC(=O)[C@H](Cc2ccc(O)cc2)NC(=O)CCS(=O)(=O)CC[C@@H](C(=O)N(C)CC(=O)N[C@@](C)(CC(C)C)C(=O)NCC(N)=O)NC(=O)[C@H](CC(N)=O)NC(=O)[C@H](CCC(N)=O)NC1=O [Example 22] (HELM PEPTIDE1{Y.I.Q.N.[O=C([C@H](CCS(=O)(=O)CCC(=O)[*:3])N[*:1])[*:2]].[Sar].[CC(C)C[C@](C)(N[*:1])C(=O)[*:2]].G.[am]}$PEPTIDE1,PEPTIDE1,1:R1-5:R3$$$V2.0) ?
Reply: 8.60

Ask: Quick one: pEC50 for CC[C@H](C)[C@@H]1NC(=O)[C@H](Cc2ccc(O)cc2)NC(=O)CCS(=O)(=O)CC[C@@H](C(=O)N(C)CC(=O)N[C@@H](CN)C(=O)NCC(N)=O)NC(=O)[C@H](CC(N)=O)NC(=O)[C@H](CCC(N)=O)NC1=O [Example 20] (HELM PEPTIDE1{Y.I.Q.N.[O=C([C@H](CCS(=O)(=O)CCC(=O)[*:3])N[*:1])[*:2]].[Sar].[NC[C@H](N[*:1])C(=O)[*:2]].G.[am]}$PEPTIDE1,PEPTIDE1,1:R1-5:R3$$$V2.0) ?
Reply: 7.89

###

Can you tell me pEC50 for the items I'm about to list?
target: human V2 receptor (Homo sapiens); assay: Calcium flux assay (FLIPR) in CHO cells expressing human V2+Gqs5; conditions: agonist mode, CHO cells with chimeric Gqs5, calcium flux FLIPR; read-out: hV2 EC50
Sequence (P30518 whole entry): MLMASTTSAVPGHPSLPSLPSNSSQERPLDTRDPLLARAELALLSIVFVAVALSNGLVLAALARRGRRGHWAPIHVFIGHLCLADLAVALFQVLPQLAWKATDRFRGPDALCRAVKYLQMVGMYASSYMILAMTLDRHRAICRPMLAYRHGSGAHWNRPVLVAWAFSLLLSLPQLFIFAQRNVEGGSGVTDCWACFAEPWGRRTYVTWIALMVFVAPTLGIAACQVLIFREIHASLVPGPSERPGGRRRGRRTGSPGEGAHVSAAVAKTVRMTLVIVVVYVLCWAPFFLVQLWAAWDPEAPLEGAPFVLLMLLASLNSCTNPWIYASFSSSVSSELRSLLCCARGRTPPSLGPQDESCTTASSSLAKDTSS
Where a SMILES comes first, the peptide text is derived from it.
Give only the number. pEC50 is defined as minus log10 of concentration in molar units.

Ask: Quick one: pEC50 for CC[C@H](C)[C@@H]1NC(=O)[C@H](Cc2ccc(O)cc2)NC(=O)CCS(=O)(=O)CC[C@@H](C(=O)N(CC(=O)N[C@@H](CC(C)C)C(=O)NCC(N)=O)C2CC2)NC(=O)[C@H](CC(N)=O)NC(=O)[C@H](CCC(N)=O)NC1=O [Example 27] (HELM PEPTIDE1{Y.I.Q.N.[O=C([C@H](CCS(=O)(=O)CCC(=O)[*:3])N[*:1])[*:2]].[O=C(CN(C1CC1)[*:1])[*:2]].L.G.[am]}$PEPTIDE1,PEPTIDE1,1:R1-5:R3$$$V2.0) ?
Reply: 5.43

Ask: Quick one: pEC50 for CC[C@H](C)[C@@H]1NC(=O)[C@H](Cc2ccc(O)cc2)NC(=O)CCS(=O)(=O)CC[C@@H](C(=O)N(C)CC(=O)N[C@@H](CC(C)C)C(=O)NCC(N)=O)NC(=O)[C@H](CC(N)=O)NC(=O)[C@H](CCC(N)=O)NC1=O [Example 2] (HELM PEPTIDE1{Y.I.Q.N.[O=C([C@H](CCS(=O)(=O)CCC(=O)[*:3])N[*:1])[*:2]].[Sar].L.G.[am]}$PEPTIDE1,PEPTIDE1,1:R1-5:R3$$$V2.0) ?
Reply: 5.40

Ask: Quick one: pEC50 for CC[C@H](C)[C@@H]1NC(=O)[C@H](Cc2ccc(O)cc2)NC(=O)CCS(=O)(=O)CC[C@@H](C(=O)N2CCC[C@H]2C(=O)N[C@@H](CC(C)C)C(=O)NCC(N)=O)NC(=O)[C@H](CC(N)=O)NC(=O)[C@H](CCC(N)=O)NC1=O [Example 1] (HELM PEPTIDE1{Y.I.Q.N.[O=C([C@H](CCS(=O)(=O)CCC(=O)[*:3])N[*:1])[*:2]].P.L.G.[am]}$PEPTIDE1,PEPTIDE1,1:R1-5:R3$$$V2.0) ?
Reply: 5.53

###

molecular target: human V2 receptor (Homo sapiens); construct: expressed in transfected cells; assay: Calcium flux assay (FLIPR) in CHO cells expressing human V2+Gqs5; format: cell-based; settings: CHO; maximum response normalized to endogenous full agonist = 100%; read-out: hV2 efficacy
*1 amine or outer side, *2 acyl side, *3 side chain or, on linkers, in order; H or OH if unused. Where a SMILES comes first, the peptide text is derived from it. Bridges are numbered along the chain shown (N, C = ends). [ ]: non-standard residue; d: D form. Hcy(O2-CH2CH2CO) = O=C([C@H](CCS(=O)(=O)CCC(=O)[*:3])N[*:1])[*:2]; Chg = N[C@H](C(=O)O)C1CCCCC1; NcPrGly = O=C(O)CNC1CC1
reported endpoint: Emax (%)
Write the number in % without appending the unit.

Ask: Quick one: Emax for CC[C@H](C)[C@@H]1NC(=O)[C@H](Cc2ccc(O)cc2)NC(=O)CCS(=O)(=O)CC[C@@H](C(=O)N2CCC[C@H]2C(=O)N[C@@H](CC(C)C)C(=O)NCC(N)=O)NC(=O)[C@H](CC(N)=O)NC(=O)[C@H](CCC(N)=O)NC1=O [Example 1] (HELM PEPTIDE1{Y.I.Q.N.[O=C([C@H](CCS(=O)(=O)CCC(=O)[*:3])N[*:1])[*:2]].P.L.G.[am]}$PEPTIDE1,PEPTIDE1,1:R1-5:R3$$$V2.0) ?
Reply: 101

Ask: Quick one: Emax for CC[C@H](C)[C@@H]1NC(=O)[C@H](Cc2ccc(O)cc2)NC(=O)CCS(=O)(=O)CC[C@@H](C(=O)N(CC(=O)N[C@H](C(=O)NCC(N)=O)C(C)C)C2CC2)NC(=O)[C@H](CC(N)=O)NC(=O)[C@H](CCC(N)=O)NC1=O [Example 29] (HELM PEPTIDE1{Y.I.Q.N.[O=C([C@H](CCS(=O)(=O)CCC(=O)[*:3])N[*:1])[*:2]].[O=C(CN(C1CC1)[*:1])[*:2]].V.G.[am]}$PEPTIDE1,PEPTIDE1,1:R1-5:R3$$$V2.0) ?
Reply: 143

Ask: Quick one: Emax for CC[C@H](C)[C@@H]1NC(=O)[C@H](Cc2ccc(O)cc2)NC(=O)CCS(=O)(=O)CC[C@@H](C(=O)N(C)CC(=O)N[C@@H](CC(C)C)C(=O)NCC(N)=O)NC(=O)[C@H](CC(N)=O)NC(=O)[C@H](CCC(N)=O)NC1=O [Example 2] (HELM PEPTIDE1{Y.I.Q.N.[O=C([C@H](CCS(=O)(=O)CCC(=O)[*:3])N[*:1])[*:2]].[Sar].L.G.[am]}$PEPTIDE1,PEPTIDE1,1:R1-5:R3$$$V2.0) ?
Reply: 86

Ask: Quick one: Emax for CC[C@H](C)[C@H](NC(=O)CN(C(=O)[C@@H]1CCS(=O)(=O)CCC(=O)N[C@@H](Cc2ccc(O)cc2)C(=O)N[C@@H]([C@@H](C)CC)C(=O)N[C@@H](CCC(N)=O)C(=O)N[C@@H](CC(N)=O)C(=O)N1)C1CC1)C(=O)NCC(N)=O [Example 31] (HELM PEPTIDE1{Y.I.Q.N.[O=C([C@H](CCS(=O)(=O)CCC(=O)[*:3])N[*:1])[*:2]].[O=C(CN(C1CC1)[*:1])[*:2]].I.G.[am]}$PEPTIDE1,PEPTIDE1,1:R1-5:R3$$$V2.0) ?
Reply: 150

Ask: Quick one: Emax for CC[C@H](C)[C@@H]1NC(=O)[C@H](Cc2ccc(O)cc2)NC(=O)CCS(=O)(=O)CC[C@@H](C(=O)N(CC(=O)N[C@H](C(=O)NCC(N)=O)C2CCCCC2)C2CC2)NC(=O)[C@H](CC(N)=O)NC(=O)[C@H](CCC(N)=O)NC1=O [Example 32] (YIQN[Hcy(O2-CH2CH2CO)][NcPrGly][Chg]G-NH2; lactam N-5) ?
Reply: 155
